Tested on: PPARg:RXRa 30nM:10nM, anti-RXR (NR concentration 30 nM, RXRa partner concentration 10 nM)
Procedure summary: PBM binding z-score (relative to random genomic background probes); higher = stronger binding; sequences stand for … in GC…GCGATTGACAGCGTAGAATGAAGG
Recorded endpoint: PBM binding z-score

# Record sequence, Measurement target, Endpoint value
rows = [
    ("TCGAGTAGGTTTGGGGCATTCAGAATGGCGTCGA", "PPARg:RXRa 30nM:10nM, anti-RXR (NR concentration 30 nM, RXRa partner concentration 10 nM)", 0.701),
    ("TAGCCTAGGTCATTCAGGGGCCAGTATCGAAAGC", "PPARg:RXRa 30nM:10nM, anti-RXR (NR concentration 30 nM, RXRa partner concentration 10 nM)", 0.0848),
    ("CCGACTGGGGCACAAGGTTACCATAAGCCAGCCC", "PPARg:RXRa 30nM:10nM, anti-RXR (NR concentration 30 nM, RXRa partner concentration 10 nM)", 0.724),
    ("TCTGCGAGGTCAACGATGGTCAGCTAATCTGCTA", "PPARg:RXRa 30nM:10nM, anti-RXR (NR concentration 30 nM, RXRa partner concentration 10 nM)", 3.37),
    ("ATCTCTAGGTAATACTCAGTTCAGTGAAGAACGC", "PPARg:RXRa 30nM:10nM, anti-RXR (NR concentration 30 nM, RXRa partner concentration 10 nM)", 0.572),
    ("TCGGGTAGGTTAGTCGGGGCATTCAGCCAACATA", "PPARg:RXRa 30nM:10nM, anti-RXR (NR concentration 30 nM, RXRa partner concentration 10 nM)", 1.92),
    ("ATCGAAAGGTCGTGTGGTGAGTATACAGAAAGGC", "PPARg:RXRa 30nM:10nM, anti-RXR (NR concentration 30 nM, RXRa partner concentration 10 nM)", 1.38),
    ("TCTAATAGTTGAAGGGCAACCGACGAGTCCGTTT", "PPARg:RXRa 30nM:10nM, anti-RXR (NR concentration 30 nM, RXRa partner concentration 10 nM)", 3.45),
    ("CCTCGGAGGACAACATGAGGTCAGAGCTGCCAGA", "PPARg:RXRa 30nM:10nM, anti-RXR (NR concentration 30 nM, RXRa partner concentration 10 nM)", -0.623),
    ("GCTAGCAGGCCATATGGGTCACTCAATGACGGGC", "PPARg:RXRa 30nM:10nM, anti-RXR (NR concentration 30 nM, RXRa partner concentration 10 nM)", -0.31),
    ("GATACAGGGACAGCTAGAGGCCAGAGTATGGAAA", "PPARg:RXRa 30nM:10nM, anti-RXR (NR concentration 30 nM, RXRa partner concentration 10 nM)", -0.2),
    ("AGTATGAGGTTAAGATCAGGGAAACAGAATACAT", "PPARg:RXRa 30nM:10nM, anti-RXR (NR concentration 30 nM, RXRa partner concentration 10 nM)", 0.773),
    ("ATCTCTAGGTAAAGGTAGTTCAGTGAATGCAAAT", "PPARg:RXRa 30nM:10nM, anti-RXR (NR concentration 30 nM, RXRa partner concentration 10 nM)", 0.811),
    ("CAAACTAGGACAAGGTCAAAGTCGGTTTGTGCCA", "PPARg:RXRa 30nM:10nM, anti-RXR (NR concentration 30 nM, RXRa partner concentration 10 nM)", 3.12),
    ("CCTACTGGGCCAAGGGTCATTGATTCCAATGCTC", "PPARg:RXRa 30nM:10nM, anti-RXR (NR concentration 30 nM, RXRa partner concentration 10 nM)", 8.43),
    ("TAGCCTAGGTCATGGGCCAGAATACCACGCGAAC", "PPARg:RXRa 30nM:10nM, anti-RXR (NR concentration 30 nM, RXRa partner concentration 10 nM)", 0.806),
    ("TCTTGTAGATCAAGCAGGTTAACAAAGCCTGAGT", "PPARg:RXRa 30nM:10nM, anti-RXR (NR concentration 30 nM, RXRa partner concentration 10 nM)", 2.44),
    ("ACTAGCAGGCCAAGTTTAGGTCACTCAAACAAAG", "PPARg:RXRa 30nM:10nM, anti-RXR (NR concentration 30 nM, RXRa partner concentration 10 nM)", -0.151),
    ("CGTCCAAGGTCAGAGAGGTAAGTGAATGCCGAGT", "PPARg:RXRa 30nM:10nM, anti-RXR (NR concentration 30 nM, RXRa partner concentration 10 nM)", 0.414),
    ("TCATGTAGATCAACAGGAGGTTAAGAAAGATCGA", "PPARg:RXRa 30nM:10nM, anti-RXR (NR concentration 30 nM, RXRa partner concentration 10 nM)", 2.65),
    ("CAAACTAGGTCACCGGAAGGTCAAAATCCGCATG", "PPARg:RXRa 30nM:10nM, anti-RXR (NR concentration 30 nM, RXRa partner concentration 10 nM)", 5.96),
    ("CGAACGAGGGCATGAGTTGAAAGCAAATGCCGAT", "PPARg:RXRa 30nM:10nM, anti-RXR (NR concentration 30 nM, RXRa partner concentration 10 nM)", 0.552),
    ("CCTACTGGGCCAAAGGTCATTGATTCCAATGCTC", "PPARg:RXRa 30nM:10nM, anti-RXR (NR concentration 30 nM, RXRa partner concentration 10 nM)", 10.7),
    ("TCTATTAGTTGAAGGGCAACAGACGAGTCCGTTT", "PPARg:RXRa 30nM:10nM, anti-RXR (NR concentration 30 nM, RXRa partner concentration 10 nM)", 3.73),
    ("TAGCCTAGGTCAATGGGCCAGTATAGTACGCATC", "PPARg:RXRa 30nM:10nM, anti-RXR (NR concentration 30 nM, RXRa partner concentration 10 nM)", 0.834),
    ("TCTAGCAGTCCAGAGGGTCACTCAAGAGGTACGG", "PPARg:RXRa 30nM:10nM, anti-RXR (NR concentration 30 nM, RXRa partner concentration 10 nM)", 2.05),
]
